The values you see were collected from ChEMBL document CHEMBL3882725.

# target-entity: Mitogen-activated protein kinase 9 (Homo sapiens, UniProt P45984)
# Sequence (P45984 whole entry, the tested form may be a part): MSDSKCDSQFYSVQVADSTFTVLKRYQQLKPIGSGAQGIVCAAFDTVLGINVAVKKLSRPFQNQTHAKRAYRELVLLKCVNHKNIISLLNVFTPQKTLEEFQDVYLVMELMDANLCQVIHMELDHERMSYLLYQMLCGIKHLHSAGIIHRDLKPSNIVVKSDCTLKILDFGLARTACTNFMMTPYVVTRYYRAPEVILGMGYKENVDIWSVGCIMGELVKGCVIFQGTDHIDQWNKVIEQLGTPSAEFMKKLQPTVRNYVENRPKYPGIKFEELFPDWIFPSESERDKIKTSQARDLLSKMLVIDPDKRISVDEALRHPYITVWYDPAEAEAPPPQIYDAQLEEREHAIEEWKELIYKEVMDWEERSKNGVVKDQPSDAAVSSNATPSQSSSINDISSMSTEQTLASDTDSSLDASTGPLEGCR
# test: Inhibition of His6-tagged JNK2 (unknown origin) assessed as reduction in c-Jun phosphorylation using GST-c-Jun (1 to 79 residues) and [gamma32P]ATP incubated for 1 hr by scintillation counting assay
pIC50: −log10 of the molar value.
readout-label: pIC50

Would you please look over these solved cases?
c1ccc2oc(-c3n[nH]c4ccc(-c5nnn[nH]5)cc34)cc2c1    5.00 to 6.30
NC(=O)c1ccc2[nH]nc(-c3cccc(NC(=O)c4cccs4)c3)c2c1    5.00 to 6.00
Nc1cccc(NC(=O)c2ccc3[nH]nc(-c4ccc(F)cc4)c3c2)c1    5.00 to 6.00
CCNc1ccc2[nH]nc(-c3ccc(F)cc3)c2c1    ≥ 5.00
NC(=O)CCNC(=O)c1ccc2[nH]nc(-c3ccc(F)cc3)c2c1    5.00 to 6.00

// returns reported pIC50 for input `COCCNC(=O)c1ccc2[nH]nc(-c3cc4ccccc4o3)c2c1` 5.00 to 6.00

* * *

Quick reference for IC50 among some molecules
# target-entity: Mitogen-activated protein kinase 9 (Homo sapiens)
# test: Inhibition of His6-tagged JNK2 (unknown origin) assessed as reduction in c-Jun phosphorylation using GST-c-Jun (1 to 79 residues) and [gamma32P]ATP incubated for 1 hr by scintillation counting assay

// worked examples, IC50 included
Clc1cccc(-c2n[nH]c3ccc(-c4ncn[nH]4)cc23)c1    1 to 10 µM
NC(=O)c1ccc2[nH]nc(-c3cccc(NC(=O)C4CCOC4)c3)c2c1 (stereo not given)    0.5 to 10 µM
COc1ccc(C(=O)Nc2cccc(-c3n[nH]c4ccc(-c5nc[nH]n5)cc34)c2)cc1    0.5 to 10 µM

Given the entry `C(=C\c1n[nH]c2ccc(-c3nnn[nH]3)cc12)/c1ccccc1` , report its measured IC50. 0.5 to 10 µM

How about `CC(=O)O[C@@H](C)C(=O)Nc1cccc(-c2n[nH]c3ccc(-c4nn[nH]n4)cc23)c1` ? 0.5 to 10 µM

Now consider `CN(C)Cc1n[nH]c(-c2ccc3[nH]nc(-c4cccc(C(=O)Nc5ccc(F)cc5)c4)c3c2)n1` and answer again. 0.5 to 10 µM

* * *

# target-entity: Mitogen-activated protein kinase 9 (Homo sapiens)
# test: Inhibition of His6-tagged JNK2 (unknown origin) assessed as reduction in c-Jun phosphorylation using GST-c-Jun (1 to 79 residues) and [gamma32P]ATP incubated for 1 hr by scintillation counting assay
compounds and their reported IC50

CNC(=O)c1ccc2[nH]nc(-c3ccc(F)cc3)c2c1    1 to 10 µM
Clc1ccccc1-c1n[nH]c2ccc(-c3ncn[nH]3)cc12    1 to 10 µM
O=C(Nc1cccc(-c2n[nH]c3ccc(-c4nc[nH]n4)cc23)c1)c1ccc(Cl)cc1Cl    1 to 10 µM
c1nc(-c2ccc3[nH]nc(-c4ccc5c(c4)CCO5)c3c2)n[nH]1    1 to 10 µM

From here, focus on the item given below.
What measured IC50 goes with `O=C(Nc1ccncc1)c1cccc(-c2n[nH]c3ccc(-c4nc[nH]n4)cc23)c1` ? 0.5 to 10 µM

* * *

# target-entity: Mitogen-activated protein kinase 9 (Homo sapiens)
# test: Inhibition of His6-tagged JNK2 (unknown origin) assessed as reduction in c-Jun phosphorylation using GST-c-Jun (1 to 79 residues) and [gamma32P]ATP incubated for 1 hr by scintillation counting assay
# maps each entry to its IC50

Some solved entries appear below for comparison.
c1coc(-c2n[nH]c3ccc(-c4nnn[nH]4)cc23)c1    0.5 to 10 µM
O=C(O)c1ccc(C(=O)Nc2ccc3[nH]nc(-c4ccc(F)cc4)c3c2)cc1    1 to 10 µM
O=C(Nc1cccc(-c2n[nH]c3ccc(-c4nc[nH]n4)cc23)c1)c1ccccc1    0.5 to 10 µM
Fc1ccc(-c2n[nH]c3ccc(CCc4ccccc4)cc23)cc1    ≤ 10 µM
CN(C)CCOc1ccc(-c2n[nH]c3ccc(C(N)=O)cc23)cc1    1 to 10 µM

Continue with the compound presented below.
IC50 lookup needed for `CC(C)NC(=O)c1cccc(-c2n[nH]c3ccc(-c4nc[nH]n4)cc23)c1` , thanks. 0.5 to 10 µM
